Tested on: OVCAR-3 ovarian
Measurement Notes: NCI tumour cell line growth inhibition, 48 h
Property Label: TGI

- Compound: "COc1cc(C(=O)O[C@H](C(=O)NCCNC(=O)[C@@H](OC(=O)c2cc(OC)cc3c(C)cccc23)[C@]2(C)CO2)[C@]2(C)CO2)c2cccc(C)c2c1"
  System: "OVCAR-3 ovarian"
  Property Label: "TGI"
  Measurement: "7.63 µM"
- Compound: "CCOC(=O)Cc1csc(/N=C2\\NC(=O)/C(=C3\\C(=O)N(C)c4ccccc43)S2)n1"
  System: "OVCAR-3 ovarian"
  Property Label: "TGI"
  Measurement: "72.7 µM"
- Compound: "NCCCC(=O)Nc1ccncc1"
  System: "OVCAR-3 ovarian"
  Property Label: "TGI"
  Measurement: "> 100 µM"
- Compound: "CCCCCCCCCCC(C)CCCCCCC(=O)OCC(COP(=O)([O-])OCC[N+](C)(C)C)OC(=O)CCCCCCC(C)CCCCCCCCCC (stereo unspecified)"
  System: "OVCAR-3 ovarian"
  Property Label: "TGI"
  Measurement: "> 100 µM"
- Compound: "C=CCn1c(-c2ccccc2)cs/c1=N\\C(P(=O)(O)O)P(=O)(O)O"
  System: "OVCAR-3 ovarian"
  Property Label: "TGI"
  Measurement: "> 100 µM"
- Compound: "N=C1c2nc3n(c2C(=O)c2nc4n(c21)CCCC4)CCCC3"
  System: "OVCAR-3 ovarian"
  Property Label: "TGI"
  Measurement: "> 100 µM"
- Compound: "O=C1CCCCCCCC/C=C/CCC(c2ccco2)O1 (stereo unspecified)"
  System: "OVCAR-3 ovarian"
  Property Label: "TGI"
  Measurement: "> 100 µM"
- Compound: "O=C1OC(C2Cc3ccccc3C2=O)c2ccccc21 (stereo unspecified)"
  System: "OVCAR-3 ovarian"
  Property Label: "TGI"
  Measurement: "> 100 µM"
- Compound: "COC(=O)c1ccc(CCC2=CC(=O)C(Br)=CC2=O)cc1"
  System: "OVCAR-3 ovarian"
  Property Label: "TGI"
  Measurement: "31.4 µM"
- Compound: "CCOC(=O)c1[nH]cnc1/N=N/N(C)N"
  System: "OVCAR-3 ovarian"
  Property Label: "TGI"
  Measurement: "> 100 µM"
- Compound: "C=C1C(=O)O[C@@H]2C1C[C@@H](O)/C(C)=C/C/C=C(\\C)CCC[C@H](C)[C@H]2OC(C)=O (stereo partly specified)"
  System: "OVCAR-3 ovarian"
  Property Label: "TGI"
  Measurement: "42.7 µM"
- Compound: "Clc1ccc(-n2nnc(C3=NCCCN3)c2-c2ccccc2)cc1"
  System: "OVCAR-3 ovarian"
  Property Label: "TGI"
  Measurement: "> 100 µM"
- Compound: "C\\C=C/C=C/C=C/C(=O)O"
  System: "OVCAR-3 ovarian"
  Property Label: "TGI"
  Measurement: "> 100 µM"
- Compound: "O=C1CSC(c2cccc(Cl)c2)N1c1c(O)c(Cl)cc(Br)c1Cl (stereo unspecified)"
  System: "OVCAR-3 ovarian"
  Property Label: "TGI"
  Measurement: "33.4 µM"
- Compound: "O=[N+]([O-])c1ccc(-c2nc(N(CCO)CCO)c3ccccc3n2)o1"
  System: "OVCAR-3 ovarian"
  Property Label: "TGI"
  Measurement: "1.43 µM"
- Compound: "O=C1c2n[nH]nc2C(=O)c2n[nH]nc21"
  System: "OVCAR-3 ovarian"
  Property Label: "TGI"
  Measurement: "> 100 µM"
- Compound: "N#Cc1nc(C(F)(F)F)oc1N"
  System: "OVCAR-3 ovarian"
  Property Label: "TGI"
  Measurement: "> 100 µM"
- Compound: "S=c1[nH]c(=S)c2sc(=S)n(-c3ccccc3)c2[nH]1"
  System: "OVCAR-3 ovarian"
  Property Label: "TGI"
  Measurement: "> 100 µM"
- Compound: "CC1(C)OC[C@@H]([C@@]2(CO[Si](C)(C)C(C)(C)C)CC=CC(=O)O2)O1"
  System: "OVCAR-3 ovarian"
  Property Label: "TGI"
  Measurement: "39.7 µM"
- Compound: "C/C=C1/CN2[C@@H](C3=C[C@@H]4[C@@H]5N(C3=O)c3ccccc3[C@@]53CCN5C/C(=C/C)[C@@H]4C[C@H]53)C[C@@]34c5ccccc5N5C(=O)CC=C([C@H]1C[C@H]23)[C@H]54"
  System: "OVCAR-3 ovarian"
  Property Label: "TGI"
  Measurement: "15.8 µM"
- Compound: "CCOC(=O)CCCn1c(SC)nc2cc(-c3ccco3)[nH]c2c1=O"
  System: "OVCAR-3 ovarian"
  Property Label: "TGI"
  Measurement: "> 100 µM"
